# Tested on: Plasmodium berghei
# assay details: Screen against P. berghei liver stage (PbLuc), transformed with Luciferase, at 2uM
# Type: functional, HepG2
# recorded conditions: tested at 2 uM
The campaign covered roughly 68,000 compounds. About 2,700 (4%) showed an effect of 50% or more. For the sample, strong results were picked, then their nearest neighbours and some compounds at random.
Below, each entry is listed with its recorded INHIBITION.
reported endpoint: INHIBITION

1) CC1(C(=O)NCc2cccnc2Oc2ccc(F)cc2F)CCCNC1 (stereo not given)
-20.29%
2) COc1ccccc1C(=O)N(C)Cc1nnc2ccccn12
40.82%
3) Cc1nc(Nc2ncc(C)s2)cc(C2CCCN2)n1 (stereo not given)
-30.88%
4) CCNC(=O)C(C)NC(=O)Nc1ccccc1Cl (stereo not given)
12.43%
5) CCCS(=O)(=O)N1CCC2(CCC(=O)N(CCc3ccccc3)C2)CC1
15.56%
6) O=C(NCC(O)c1ccc(F)c(F)c1)c1ccccc1F (stereo not given)
26.74%
7) Cc1cc(-c2cnc(N3CCCC(C)C3)nc2-c2cccnc2C)on1 (stereo not given)
-39.75%
8) CNC(=O)C1CN(c2ccnc(C)n2)CCN1Cc1ccccc1 (stereo not given)
-10.89%
9) Cc1n[nH]cc1CNC(=O)CCCc1cccs1
20.86%
10) CCCS(=O)(=O)N1CCC2(CCC(=O)N(Cc3ccccc3)C2)CC1
57.91%

* * *

# System: Plasmodium berghei
# assay details: Screen against P. berghei liver stage (PbLuc), transformed with Luciferase, at 2uM
# Type: functional, HepG2
# recorded conditions: tested at 2 uM
In all, about 68,000 compounds went through this assay and about 2,700 (4%) showed an effect of 50% or more. What follows is part of a selection rich in strong results, with near analogues and random picks from the rest.
I would appreciate it if you labelled entries Condition met when INHIBITION is 20% or higher, otherwise Condition not met.

1. CN(C)c1ccc(CN(CCCn2ccnc2)Cc2c[nH]cn2)cc1
Condition not met
2. O=C(NCCOCCO)c1cccnc1Oc1ccc(Cl)cc1
Condition met
3. c1ccc(CN2CCc3nnc(CN4CCCCC4)n3CC2)nc1
Condition not met
4. COc1ccc(CN2CCO[C@H]3[C@H](OCc4ccncc4)CC[C@@H]32)cc1
Condition not met
5. C/N=C1\c2cc3cc(OC)ccc3n2CCN1Cc1ccccc1
Condition not met
6. Cc1c[nH]nc1C1CCN(S(=O)(=O)N(C)C)CC1
Condition met
7. Cc1nnc(CN2CCOC(c3ccc(Cl)c(Cl)c3)C2)o1 (stereo unspecified)
Condition met
8. COc1ccccc1C1(C(=O)N2CCN(CC(C)O)CC2)CC1 (stereo unspecified)
Condition met
9. Cc1cccc(CN2CCc3nnc(CN4CCCC4=O)n3CC2)n1
Condition not met
10. Cc1ncsc1C(=O)N(C)Cc1ccc(Br)o1
Condition not met
11. Cc1nc(C)c(-c2ccn(CC(=O)Nc3cnn(C)n3)n2)s1
Condition not met
12. Cc1noc(C)c1CN1C(=O)[C@@H]2CC[C@H]1CN(Cc1cccc(O)c1)C2
Condition met
13. CC(C)N1CCC(c2n[nH]cc2S(C)(=O)=O)CC1
Condition met
14. CCOCCC(=O)Nc1cccc(Oc2ccccn2)c1
Condition not met
15. COc1ccc(F)cc1C(=O)N1CCC2(CCC(=O)N(C(C)C)C2)CC1
Condition met
16. CNc1nccnc1C1CCN(C(C)C)CC1
Condition not met
17. O=C(NCCCc1nc(=O)[nH][nH]1)c1ccc(Cl)cn1
Condition met
18. CCN(CC)C(=O)CCc1nc(-c2cnn3c(C)cc(C)nc23)no1
Condition not met
19. CN(C)C[C@@H]1C[C@@H]2CN(C(=O)c3ccoc3)CC[C@@H]2N1CC1CC1
Condition not met
20. CN(C)C(C(=O)N1CCCC1)c1ccccc1F (stereo unspecified)
Condition not met
21. CC(C)C(=O)N1CCC2(CCCN(CCOc3ccccc3)C2)C1 (stereo unspecified)
Condition met
